ASSAY_OVERVIEW: Cytotoxicity against human SMMC7721 cells by MTT assay
Assay type: functional, cell-based
TEST_PARAMETERS: SMMC-7721
PROPERTY_LABEL: IC50 (µM)
# value in µM; strip the unit string

COMPOUND | UOM | RECORDED_NUMBER
Cc1n(CC(=O)N2CCC3(C)c4ccccc4N(Cc4ccccc4)C23)c2ccccc2[n+]1Cc1ccccc1Br (stereo not given) | µM | 2.27

--- query ---
Prompt: Can you look up the measured IC50 of Cc1cc2c(cc1C)[n+](CC(=O)c1ccc(Br)cc1)cn2CC(=O)N1CCC2(C)c3ccccc3N(Cc3ccccc3)C12 (stereo not given) for me?
Completion: 6.22

The reported numbers originate from ChEMBL document CHEMBL3745696.
